System: Mycobacterium tuberculosis
run.description: Antimycobacterial activity against Mycobacterium tuberculosis H37Rv after 5 days by resazurin-based microdilution method
Assay type: functional
setup.conditions: 120 h
measure: MIC (µM)
# unit: µM | format: bare number

Solved cases (4 shown):
smiles.code	MIC, µM
Fc1ccc(Nc2nc(-c3ccc(Br)cc3)c(Br)s2)cc1	25
Oc1ccc(Nc2nc(-c3ccc(Cl)cc3)cs2)cc1	200
Fc1ccc(Nc2nc(-c3ccc4ccccc4c3)cs2)cc1	100
Fc1ccc(Nc2nc(-c3ccc(Br)cc3)cs2)cc1	25

Then there is this compound:
Any idea what MIC was measured for COc1ccc(-c2csc(Nc3ccc(F)cc3)n2)cc1 ?
12.5

Attribution: ChEMBL document CHEMBL3352275
